Provide the reported half-life at 9.8 μM of each item.
- run.description: Liver microsomes stability assay
- Assay type: in vitro ADME, mouse
- experimental.parameters: both sexes, CD-1, pH 7.4; mouse liver microsomes; read-out: Mouse Metabolic Stability t1/2 (converted)
- Procedure: The microsomal stability assay was carried out as described. […] Each test compound (2.2 μL of 10 mM DMSO solution) was added directly to 1.79 mL of mouse liver microsomal solution and 90 μL was transferred to wells in 96-well plates (0, 0.25, 0.5, 1, 2, and 4 h time points each in triplicate). […] The half-life t1/2 was calculated as ln2/ke.
Use min as the unit, but write only the number.

### Prompt Report half-life at 9.8 μM, nothing else, for this compound: COc1cc(Nc2ccc3cc(S(=O)(=O)N4CCCCC4C)ccc3n2)cc(OC)c1OC (stereo not shown) [Compound 1]
### Response 16.2

### Prompt Report half-life at 9.8 μM, nothing else, for this compound: CC1CCCCN1S(=O)(=O)c1ccc2nc(Nc3cccc(C#N)c3)ccc2c1 (stereo not shown) [Compound 13]
### Response 4.8

### Prompt Report half-life at 9.8 μM, nothing else, for this compound: CC1CCCCN1S(=O)(=O)c1ccc2nc(Nc3ccc(C#N)cc3)ccc2c1 (stereo not shown) [Compound 12]
### Response 19.2

### Prompt Report half-life at 9.8 μM, nothing else, for this compound: CC1CCCCN1S(=O)(=O)c1ccc2nc(Nc3ccccc3)ccc2c1 (stereo not shown) [Compound 10]
### Response 7.8

* * *

Provide the reported selective inhibition of PfHT versus GLUT1 of each item.
- target.system: PfHT (Plasmodium falciparum)
- Sequence (Q7KWJ5 whole entry): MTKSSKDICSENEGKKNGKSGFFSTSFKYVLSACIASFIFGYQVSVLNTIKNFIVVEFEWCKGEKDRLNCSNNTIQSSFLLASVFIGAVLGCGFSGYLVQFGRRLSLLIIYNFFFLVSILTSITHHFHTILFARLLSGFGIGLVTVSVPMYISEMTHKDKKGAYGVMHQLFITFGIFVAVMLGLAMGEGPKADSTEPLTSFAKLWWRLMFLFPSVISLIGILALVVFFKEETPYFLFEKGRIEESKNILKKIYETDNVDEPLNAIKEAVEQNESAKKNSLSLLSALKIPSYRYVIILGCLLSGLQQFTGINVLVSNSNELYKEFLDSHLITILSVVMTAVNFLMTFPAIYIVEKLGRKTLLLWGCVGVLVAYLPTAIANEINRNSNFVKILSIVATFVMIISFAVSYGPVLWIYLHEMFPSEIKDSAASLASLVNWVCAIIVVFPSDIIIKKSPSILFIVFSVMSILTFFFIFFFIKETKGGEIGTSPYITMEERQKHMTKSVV
- run.description: Uptake of [3H] D-glucose by L. mexicana Δlmxgt1-3 null mutants expressing PfHT
- Format: cell-based
- Design: expressed in transfected cells; host or cells: Leishmania mexicana promastigotes, Δlmxgt1-3 hexose transporter null mutant
Use fold as the unit, but write only the number.

### Prompt Using PfHT (Plasmodium falciparum) as the test system, report measured selective inhibition of PfHT versus GLUT1 of COc1ccc(Nc2ccc3cc(S(=O)(=O)N4CCCCC4C)ccc3n2)cc1Cl (stereo not shown) .
### Response 65

### Prompt Using PfHT (Plasmodium falciparum) as the test system, report measured selective inhibition of PfHT versus GLUT1 of "O=C1c2ccc3c4c(ccc(c24)C(=O)N1CCCCO)C(=O)N(CCCCO)C3=O" .
### Response 71

### Prompt Using PfHT (Plasmodium falciparum) as the test system, report measured selective inhibition of PfHT versus GLUT1 of CC1CCCCN1S(=O)(=O)c1ccc2nc(Nc3cccc(C#N)c3)ccc2c1 (stereo not shown) .
### Response 94

### Prompt Using PfHT (Plasmodium falciparum) as the test system, report measured selective inhibition of PfHT versus GLUT1 of COc1cc(Nc2ccc3cc(S(=O)(=O)N4CCCCC4C)ccc3n2)cc(OC)c1OC (stereo not shown) .
### Response 82

* * *

- run.description: Parallel artificial membrane permeability assay (PAMPA)
- experimental.parameters: retention in artificial membrane
metric.name: Retention
Please provide the amount together with its unit, number first.

### Prompt Report Retention, nothing else, for this compound: CC1CCCCN1S(=O)(=O)c1ccc2nc(Nc3cccc(C#N)c3)ccc2c1 (stereo not drawn)
### Response 93 ± 0.5%

### Prompt Report Retention, nothing else, for this compound: CC1CCCCN1S(=O)(=O)c1ccc2nc(Nc3ccccc3)ccc2c1 (stereo not drawn)
### Response 80 ± 12%

### Prompt Report Retention, nothing else, for this compound: COc1cc(Nc2ccc3cc(S(=O)(=O)N4CCCCC4C)ccc3n2)cc(OC)c1OC (stereo not drawn)
### Response 70 ± 2.0%

// data source = paper PMC4404333
